- Assay system: GalNAc kinase (Sus scrofa, UniProt A0A287BB25)
- Construct: This enzyme was purified about 1400-fold from the cytosolic fraction of pig kidney; from tissue; host or cells: pig kidney cytosol
- Sequence (A0A287BB25 1-458): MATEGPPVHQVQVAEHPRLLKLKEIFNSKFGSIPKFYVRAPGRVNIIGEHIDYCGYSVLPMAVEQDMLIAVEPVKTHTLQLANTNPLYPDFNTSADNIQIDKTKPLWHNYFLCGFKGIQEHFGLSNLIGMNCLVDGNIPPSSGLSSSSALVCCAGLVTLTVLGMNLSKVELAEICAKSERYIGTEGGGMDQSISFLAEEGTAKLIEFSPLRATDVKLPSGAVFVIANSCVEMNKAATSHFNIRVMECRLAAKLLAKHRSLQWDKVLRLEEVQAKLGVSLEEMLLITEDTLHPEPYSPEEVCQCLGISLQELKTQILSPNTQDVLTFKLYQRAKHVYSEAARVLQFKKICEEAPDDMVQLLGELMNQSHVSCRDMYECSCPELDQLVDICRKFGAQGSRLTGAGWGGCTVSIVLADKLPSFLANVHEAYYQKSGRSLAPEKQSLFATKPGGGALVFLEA
- Procedure text: Phosphate donor specificity of GalNAc kinase
- Format: biochemical, pig

>  <Molecule>
C=C(OP(=O)(O)O)C(=O)O [phosphoenolpyruvate]

>  <activity as phosphate donor>
No activity

$$$$
>  <Molecule>
CC(=O)OP(=O)(O)O [acetylphosphate]

>  <activity as phosphate donor>
No activity

$$$$

----------
- Assay system: GalNAc kinase (Sus scrofa, UniProt A0A287BB25)
- Construct: This enzyme was purified about 1400-fold from the cytosolic fraction of pig kidney; from tissue; host or cells: pig kidney cytosol
- Procedure text: Sugar specificity of GalNAc kinase
- Format: biochemical, pig
- Setup conditions: 4 μl enzyme; labeled sugars of same specific activity
Criterion: Radioactivity Incorp. strictly under 300 cpm. Met: T. Not met: F.

>  <Compound>
CC(=O)N[C@H]1C(O)O[C@H](CO)[C@@H](O)[C@@H]1O (stereo partly drawn)

>  <Qualitative label>
T

$$$$
>  <Compound>
N[C@H]1C(O)O[C@H](CO)[C@H](O)[C@@H]1O (stereo partly drawn)

>  <Qualitative label>
F

$$$$
>  <Compound>
N[C@H]1C(O)O[C@H](CO)[C@@H](O)[C@@H]1O (stereo partly drawn)

>  <Qualitative label>
T

$$$$
>  <Compound>
CC(=O)N[C@@H]1C(O)O[C@H](CO)[C@@H](O)[C@@H]1O (stereo partly drawn)

>  <Qualitative label>
F

$$$$

----------
- Assay system: yeast galactokinase (Saccharomyces cerevisiae)
- Construct: purchased Sigma Chemical Co
- Sequence (P04385 1-528): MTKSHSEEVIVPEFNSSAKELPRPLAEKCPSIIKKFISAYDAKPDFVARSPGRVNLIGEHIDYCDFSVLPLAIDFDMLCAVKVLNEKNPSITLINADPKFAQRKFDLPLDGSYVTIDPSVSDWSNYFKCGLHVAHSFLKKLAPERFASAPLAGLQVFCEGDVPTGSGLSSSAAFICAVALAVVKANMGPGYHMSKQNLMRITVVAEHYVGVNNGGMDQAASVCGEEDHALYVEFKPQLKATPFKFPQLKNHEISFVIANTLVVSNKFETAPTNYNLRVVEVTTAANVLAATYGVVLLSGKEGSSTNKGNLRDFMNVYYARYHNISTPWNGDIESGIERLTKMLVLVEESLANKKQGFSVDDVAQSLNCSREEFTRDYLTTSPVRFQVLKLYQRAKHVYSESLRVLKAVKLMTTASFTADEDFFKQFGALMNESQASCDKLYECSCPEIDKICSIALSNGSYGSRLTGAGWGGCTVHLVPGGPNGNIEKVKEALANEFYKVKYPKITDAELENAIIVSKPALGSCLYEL
- Procedure text: Sugar specificity of yeast galactokinase
- Assay type: biochemical
- Setup conditions: 2 ul enzyme

>  <Compound>
CC(=O)N[C@H]1C(O)O[C@H](CO)[C@@H](O)[C@@H]1O (some centres unmarked)

>  <Assay system>
yeast galactokinase (Saccharomyces cerevisiae)

>  <Radioactivity Incorporated>
133 cpm

$$$$
>  <Compound>
N[C@H]1C(O)O[C@H](CO)[C@H](O)[C@@H]1O (some centres unmarked)

>  <Assay system>
yeast galactokinase (Saccharomyces cerevisiae)

>  <Radioactivity Incorporated>
300 cpm

$$$$
>  <Compound>
O=C[C@H](O)[C@@H](O)[C@@H](O)[C@H](O)CO

>  <Assay system>
yeast galactokinase (Saccharomyces cerevisiae)

>  <Radioactivity Incorporated>
6900 cpm

$$$$
>  <Compound>
N[C@H]1C(O)O[C@H](CO)[C@@H](O)[C@@H]1O (some centres unmarked)

>  <Assay system>
yeast galactokinase (Saccharomyces cerevisiae)

>  <Radioactivity Incorporated>
135 cpm

$$$$
>  <Compound>
CC(=O)N[C@H]1C(O)O[C@H](CO)[C@H](O)[C@@H]1O (some centres unmarked)

>  <Assay system>
yeast galactokinase (Saccharomyces cerevisiae)

>  <Radioactivity Incorporated>
37 cpm

$$$$
